assay.system: protein-protein interaction between Kras and SOS1 (biotin-tagged human Kras loaded with GDP, His-tagged human SOS1) (Homo sapiens (Human), UniProt P01116, G12D)
experimental.details: Protein-protein interaction inhibition between Kras and SOS1 (KrasG12D-SOS PPI) using AlphaScreen
Assay type: biochemical
experimental.conditions: AlphaScreen; biotin-tagged human Kras loaded with GDP, His-tagged human SOS1; read-out: KRAS G12D-SOS PPI IC50
Numbered stars: 1 amine (or outer) side, 2 acyl side, 3 side chain; on linkers, the order of the positions; unused ones are H or OH. Bridge positions count the residues as written; N and C are the ends. Square brackets hold non-standard residues; d marks the D form. Peptide text beside a SMILES is read from it. * marks the point of attachment. hPhe(3-Cl-4-CF3) = N[C@@H](CCc1ccc(C(F)(F)F)c(Cl)c1)C(=O)O; NMePhe(4-Me) = CN[C@@H](Cc1ccc(C)cc1)C(=O)O; NMedβ3hAla = C[C@H](CC(=O)[*:2])N(C)[*:1]; NMeCha = CN[C@@H](CC1CCCCC1)C(=O)O; NMeD = CN[C@@H](CC(=O)O)C(=O)O; NMeL = CN[C@@H](CC(C)C)C(=O)O; NMeV = CN[C@H](C(=O)O)C(C)C; NMeA = CN[C@@H](C)C(=O)O; NMeAib = CNC(C)(C)C(=O)O; Piperidide = C1CCN(*)CC1; dNMeA = CN[C@H](C)C(=O)O; Ac5c = NC1(C(=O)O)CCCC1; Sar = CNCC(=O)O
result.type: IC50 (nM)
Form entry: value (nM) — number only.

// field: IC50; key: CC[C@H](C)[C@@H]1NC(=O)[C@H](CC(C)C)N(C)C(=O)C[C@@H](C(=O)N2CCCCC2)N(C)C(=O)[C@H](C(C)C)N(C)C(=O)C2(CCCC2)NC(=O)[C@H](C)N(C)C(=O)[C@H](CCc2ccc(C(F)(F)F)c(Cl)c2)NC(=O)CN(C)C(=O)[C@H](CC2CCCCC2)N(C)C(=O)CN(C)C(=O)CN(C)C1=O [Compound 939] ([NMeL]I[Sar][Sar][NMeCha][Sar][hPhe(3-Cl-4-CF3)][NMeA][Ac5c][NMeV][NMeD]-Piperidide; lactam N-11) ; value = 8

Quick note, IC50 for CC[C@H](C)[C@@H]1NC(=O)[C@H](CC(C)C)N(C)C(=O)C[C@@H](C)N(C)C(=O)[C@H](CC(C)C)NC(=O)C(C)(C)N(C)C(=O)[C@H](CC(C)C)NC(=O)[C@H](CCc2ccc(C(F)(F)F)c(Cl)c2)NC(=O)[C@@H](C)N(C)C(=O)[C@H](Cc2ccc(C)cc2)N(C)C(=O)CN(C)C(=O)CN(C)C1=O [Compound 1384] (cyclo(I[Sar][Sar][NMePhe(4-Me)][dNMeA][hPhe(3-Cl-4-CF3)]L[NMeAib]L[NMedβ3hAla][NMeL])) landed at 230

* * *

assay.system: protein-protein interaction between Kras and SOS1 (biotin-tagged human Kras loaded with GDP, His-tagged human SOS1) (Homo sapiens (Human), UniProt P01116, G12D)
experimental.details: Protein-protein interaction inhibition between Kras and SOS1 (KrasG12D-SOS PPI) using AlphaScreen
Format: biochemical
experimental.conditions: AlphaScreen; biotin-tagged human Kras loaded with GDP, His-tagged human SOS1; read-out: KRAS G12D-SOS PPI IC50
Bridge positions count the residues as written; N and C are the ends. Square brackets hold non-standard residues; d marks the D form. Peptide text beside a SMILES is read from it. * marks the point of attachment. hPhe(3-Cl-4-CF3) = N[C@@H](CCc1ccc(C(F)(F)F)c(Cl)c1)C(=O)O; NMeNle(6-CHF2) = CN[C@@H](CCCCC(F)F)C(=O)O; NMeGly(cPent) = CN[C@H](C(=O)O)C1CCCC1; NMeGly(cBu) = CN[C@H](C(=O)O)C1CCC1; NMeCha = CN[C@@H](CC1CCCCC1)C(=O)O; NMeChg = CN[C@H](C(=O)O)C1CCCCC1; NMeD = CN[C@@H](CC(=O)O)C(=O)O; NMeL = CN[C@@H](CC(C)C)C(=O)O; NMeNva = CCC[C@H](NC)C(=O)O; NMeV = CN[C@H](C(=O)O)C(C)C; d(β3hA) = C[C@@H](N)CC(=O)O; NMeAbu = CC[C@H](NC)C(=O)O; NMeA = CN[C@@H](C)C(=O)O; Piperidide = C1CCN(*)CC1; Ac5c = NC1(C(=O)O)CCCC1; Aze = O=C(O)[C@@H]1CCN1; Sar = CNCC(=O)O
Exercise: state measured IC50 for each of the compounds provided.
Number in nM, nothing else.

CC[C@H](C)[C@@H]1NC(=O)[C@H](CC(C)C)N(C)C(=O)C[C@@H](C(=O)N2CCCCC2)N(C)C(=O)[C@H](C(C)C)N(C)C(=O)C2(CCCC2)NC(=O)[C@@H]2CCCN2C(=O)[C@H](CCc2ccc(C(F)(F)F)c(Cl)c2)NC(=O)CN(C)C(=O)[C@H](CC2CCCCC2)N(C)C(=O)[C@@H]2CCN2C(=O)[C@H](CC)N(C)C1=O [Compound 1569] ([NMeL]I[NMeAbu][Aze][NMeCha][Sar][hPhe(3-Cl-4-CF3)]P[Ac5c][NMeV][NMeD]-Piperidide; lactam N-11) yielded IC50 of 16

// sample CC[C@H](C)[C@@H]1NC(=O)[C@H](CC(C)C)N(C)C(=O)C[C@@H](C(=O)N2CCCCC2)N(C)C(=O)[C@H](C2CCCCC2)N(C)C(=O)C2(CCCC2)NC(=O)[C@H](CCCCC(F)F)N(C)C(=O)[C@H](CCc2ccc(C(F)(F)F)c(Cl)c2)NC(=O)CN(C)C(=O)[C@H](CC2CCCCC2)N(C)C(=O)CN(C)C(=O)CN(C)C1=O [Compound 796] ([NMeL]I[Sar][Sar][NMeCha][Sar][hPhe(3-Cl-4-CF3)][NMeNle(6-CHF2)][Ac5c][NMeChg][NMeD]-Piperidide; lactam N-11) , its IC50 was 9.3

Data point: CC[C@H](C)[C@@H]1NC(=O)[C@H](CC(C)C)N(C)C(=O)C[C@@H](C(=O)N2CCCCC2)N(C)C(=O)[C@H](C2CCCC2)N(C)C(=O)C2(CCCC2)NC(=O)[C@@H]2CCCN2C(=O)[C@H](CCc2ccc(C(F)(F)F)c(Cl)c2)NC(=O)CN(C)C(=O)[C@H](C2CCC2)N(C)C(=O)[C@@H]2CCN2C(=O)[C@H](C)N(C)C1=O [Compound 127] ([NMeL]I[NMeA][Aze][NMeGly(cBu)][Sar][hPhe(3-Cl-4-CF3)]P[Ac5c][NMeGly(cPent)][NMeD]-Piperidide; lactam N-11) ; IC50 = 0.43

The compound listed as CCC[C@H]1C(=O)N[C@@H]([C@@H](C)CC)C(=O)N(C)[C@@H](C)C(=O)N2CC[C@H]2C(=O)N(C)[C@@H](CC2CCCCC2)C(=O)N(C)CC(=O)N[C@@H](CCc2ccc(C(F)(F)F)c(Cl)c2)C(=O)N2CCC[C@H]2C(=O)NC2(CCCC2)C(=O)N(C)[C@@H](C(C)C)C(=O)N[C@H](C)CC(=O)N1C [Compound 1564] (cyclo([Ac5c][NMeV][d(β3hA)][NMeNva]I[NMeA][Aze][NMeCha][Sar][hPhe(3-Cl-4-CF3)]P)) shows IC50 equal to 38

Form field IC50, entry CC[C@H](C)[C@@H]1NC(=O)[C@H](C)N(C)C(=O)C[C@@H](C)NC(=O)[C@H](CC(C)C)N(C)C(=O)C2(CCCC2)NC(=O)[C@H](CC(C)C)N(C)C(=O)[C@H](CCc2ccc(C(F)(F)F)c(Cl)c2)NC(=O)CN(C)C(=O)[C@H](CC2CCCCC2)N(C)C(=O)CN(C)C(=O)CN(C)C1=O [Compound 61] (cyclo([Ac5c][NMeL][d(β3hA)][NMeA]I[Sar][Sar][NMeCha][Sar][hPhe(3-Cl-4-CF3)][NMeL])) : 16

* * *

assay.system: protein-protein interaction between Kras and SOS1 (biotin-tagged human Kras loaded with GDP, His-tagged human SOS1) (Homo sapiens (Human), UniProt P01116, G12D)
experimental.details: Protein-protein interaction inhibition between Kras and SOS1 (KrasG12D-SOS PPI) using AlphaScreen;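 also: kras produced in E. coli, Ni-coupled donor beads and streptavidin acceptor beads, excitation 680 nm with emission detected at 520–620 nm via singlet oxygen transfer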
Format: biochemical
experimental.conditions: AlphaScreen; biotin-tagged human Kras loaded with GDP, His-tagged human SOS1; read-out: KRAS G12D-SOS PPI IC50
Bridge positions count the residues as written; N and C are the ends. Square brackets hold non-standard residues; d marks the D form. Peptide text beside a SMILES is read from it. * marks the point of attachment. hPhe(3-Cl-4-CF3) = N[C@@H](CCc1ccc(C(F)(F)F)c(Cl)c1)C(=O)O; NMeAla(cPent) = CN[C@@H](CC1CCCC1)C(=O)O; NMeCha = CN[C@@H](CC1CCCCC1)C(=O)O; NMeChg = CN[C@H](C(=O)O)C1CCCCC1; NMeD = CN[C@@H](CC(=O)O)C(=O)O; NMeL = CN[C@@H](CC(C)C)C(=O)O; Piperidide = C1CCN(*)CC1; Ac5c = NC1(C(=O)O)CCCC1; Sar = CNCC(=O)O
result.type: pIC50
Units for pIC50: none; it is -log10 of a concentration expressed in mol/L.

pIC50 recorded for this compound, CC[C@H](C)[C@@H]1NC(=O)[C@H](CC(C)C)N(C)C(=O)C[C@@H](C(=O)N2CCCCC2)N(C)C(=O)[C@H](C2CCCCC2)N(C)C(=O)C2(CCCC2)NC(=O)[C@H](CC2CCCC2)N(C)C(=O)[C@H](CCc2ccc(C(F)(F)F)c(Cl)c2)NC(=O)CN(C)C(=O)[C@H](CC2CCCCC2)N(C)C(=O)CN(C)C(=O)CN(C)C1=O [Compound 643] ([NMeL]I[Sar][Sar][NMeCha][Sar][hPhe(3-Cl-4-CF3)][NMeAla(cPent)][Ac5c][NMeChg][NMeD]-Piperidide; lactam N-11) , is 7.57
